// reported logD per item
# test.name: LWP coefficient (log D) measurement, shake flask
# Assay type: physicochemical
# applied.conditions: pH 7.4

structure.string	result
CCCCCCCCc1c2[n+](cc3c(OC)c(OC)ccc13)CCc1cc3c(cc1-2)OCO3.[Cl-]	2.41

Proceed to the following item.
Request: Answer with the recorded logD of CCCCCCCCc1c2[n+](cc3c(OCCCCCCCCN4CCN(C)CC4)c(OC)ccc13)CCc1cc3c(cc1-2)OCO3.[Br-] only.
Result: 3.87

----------
observable: melting point

structure.string	result
CCCCCCCCc1c2[n+](cc3c(OCCCCCCN4CCCCC4)c(OC)ccc13)CCc1cc3c(cc1-2)OCO3.[Br-]	132 to 134 °C
CCCCCCCCc1c2[n+](cc3c(OCCCN4CCOCC4)c(OC)ccc13)CCc1cc3c(cc1-2)OCO3.[Br-]	167 to 169 °C
CCCCCCCCc1c2[n+](cc3c(OCCCCCCN4CCOCC4)c(OC)ccc13)CCc1cc3c(cc1-2)OCO3.[Br-]	164 to 166 °C

Request: Answer with the recorded melting point of CCCCCCCCc1c2[n+](cc3c(OCCCCCCCCCCN4CCN(C)CC4)c(OC)ccc13)CCc1cc3c(cc1-2)OCO3.[Br-] only.
Result: 136 to 138 °C

----------
# test.name: Aqueous solubility measurement by HPLC
# Format: physicochemical
# applied.conditions: 25 °C, pH 7.4, aqueous buffer, thermodynamic from solid
// reported solubility at 30 min per item
Give the number first and the unit second.

compound	result
CCCCCCCCc1c2[n+](cc3c(OC)c(OC)ccc13)CCc1cc3c(cc1-2)OCO3.[Cl-] [Compound 3c]	1120 µg/mL

Proceed to the following item.
Request: Answer with the recorded solubility at 30 min of CCCCCCCCc1c2[n+](cc3c(OCCCCCCCCN4CCN(C)CC4)c(OC)ccc13)CCc1cc3c(cc1-2)OCO3.[Br-] [Compound 6k] only.
Result: 1080 µg/mL

----------
// reported melting point per item

structure.string	melting point
CCCCCCCCc1c2[n+](cc3c(OCCCCCCCCN4CCN(C)CC4)c(OC)ccc13)CCc1cc3c(cc1-2)OCO3.[Br-]	151 to 153 °C
CCCCCCCCc1c2[n+](cc3c(OCCCCCCN4CCN(C)CC4)c(OC)ccc13)CCc1cc3c(cc1-2)OCO3.[Br-]	165 to 167 °C
CCCCCCCCc1c2[n+](cc3c(OCCCCCCCCCCN4CCOCC4)c(OC)ccc13)CCc1cc3c(cc1-2)OCO3.[Br-]	135 to 137 °C
CCCCCCCCc1c2[n+](cc3c(OCCCCCCCCCCN4CCCCC4)c(OC)ccc13)CCc1cc3c(cc1-2)OCO3.[Br-]	142 to 144 °C
CCCCCCCCc1c2[n+](cc3c(OCCCN4CCCC4)c(OC)ccc13)CCc1cc3c(cc1-2)OCO3.[Br-]	135 to 137 °C

Request: Answer with the recorded melting point of CCCCCCCCc1c2[n+](cc3c(OCCCN(CC)CC)c(OC)ccc13)CCc1cc3c(cc1-2)OCO3.[Br-] only.
Result: 142 to 144 °C

Request: Answer with the recorded melting point of CCCCCCCCc1c2[n+](cc3c(OCCCCCCCCN4CCOCC4)c(OC)ccc13)CCc1cc3c(cc1-2)OCO3.[Br-] only.
Result: 147 to 149 °C

Request: Answer with the recorded melting point of CCCCCCCCc1c2[n+](cc3c(OCCCCCCCCN4CCCCC4)c(OC)ccc13)CCc1cc3c(cc1-2)OCO3.[Br-] only.
Result: 144 to 146 °C
